experimentDescription: protein stability index of a GFP-peptide fusion (GPS, HEK-293T) (PSI 1-6); higher = more stable;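 further: 24-mer peptide tiles fused after GFP, lentivirally expressed, FACS-sorted into six equal bins by GFP/DsRed ratio, decoded by Illumina sequencing, PSI is the read-weighted mean bin number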
conditionDetails: treatment: MLN4924 1 uM, 8 h; c terminus: a fixed tail appended
reportedProperty: protein stability index

residuestring="DFIHRHCQDQNVPVENFFVKCNGA [SDE2]" reportedproperty="protein stability index" assayresult=2.95
residuestring="PHKERYFDRVDENNPEYLRERNMA [ADD1]" reportedproperty="protein stability index" assayresult=4.69
residuestring="KVEEVSLPEQVDIIISEPMGYMLF [CARM1]" reportedproperty="protein stability index" assayresult=2.54
residuestring="WDSFSAWLHCVCVVGFDLELGQAV [DENND6A]" reportedproperty="protein stability index" assayresult=3.27
residuestring="VKGMQRIVNQWSEKFSDEGDSDSA [DLC1]" reportedproperty="protein stability index" assayresult=5.09
residuestring="THFNTAQGFRTVLELVINYQQLCI [OAS1]" reportedproperty="protein stability index" assayresult=2.76
residuestring="GYNWCHDRNVVTIFSAPNYCYRCG [PPP2CA]" reportedproperty="protein stability index" assayresult=2.27
residuestring="SQAPDGRRKSEAGSGAASSSGEDK [CDC25B]" reportedproperty="protein stability index" assayresult=5.58
residuestring="INYNGIFSLKQEETLDYGKNYNYG [NEUROD6]" reportedproperty="protein stability index" assayresult=2.53
residuestring="AALTRMRAESTANAGQSDNRSLAE [ANKRD17]" reportedproperty="protein stability index" assayresult=4.81
residuestring="IKGKSCRTITFEQFQEALEELAKK [TPPP]" reportedproperty="protein stability index" assayresult=2.62
residuestring="YLAYINAKSRAEAALEEESRQRQS [SMARCE1]" reportedproperty="protein stability index" assayresult=3.75
residuestring="AFDKKVLKFDAYFQEDVPMSTEEQ [EFHC1]" reportedproperty="protein stability index" assayresult=4.73
residuestring="SLEHTLRVAIAHYQDDPDLRFLLD [TSPAN10]" reportedproperty="protein stability index" assayresult=2.98
residuestring="SERCQRQLQSLCRGLGLGGRRLKS [FANCE]" reportedproperty="protein stability index" assayresult=3.49
residuestring="DEALERCQILELLNAELEEKMMQE [CCDC89]" reportedproperty="protein stability index" assayresult=5.34
residuestring="SIVAQVDQTGSKSSNLLDLKNPFF [CARM1]" reportedproperty="protein stability index" assayresult=3.43
residuestring="RKPSVPWQRQMDQPQDRNQALGTH [RASAL3]" reportedproperty="protein stability index" assayresult=4.21
residuestring="KYRNPSLKLMVNVCGHTLCESCVD [MNAT1]" reportedproperty="protein stability index" assayresult=2.83
residuestring="EGYQALYHAVVEPMLWNPSGTPKR [C22orf31]" reportedproperty="protein stability index" assayresult=2.79
residuestring="SNEFKESALTLACYKGHLEMVRFL [ANKRD17]" reportedproperty="protein stability index" assayresult=2.4
residuestring="QNGEEGTSTPEDKESGQEGVDSMA [SMARCE1]" reportedproperty="protein stability index" assayresult=5.65
residuestring="QKNFGLYVQEKRDGLKRRQQLEEE [RAD54B]" reportedproperty="protein stability index" assayresult=4.66
residuestring="TRVLAEMREQYEAMAERNRRDAEE [KRT13]" reportedproperty="protein stability index" assayresult=5.18
residuestring="MATEGLHENETLASLKSEAESLKG [GNB5]" reportedproperty="protein stability index" assayresult=5.2
residuestring="ALNQEFLATRSNEKQELQELNDRF [PRPH]" reportedproperty="protein stability index" assayresult=4.38
residuestring="SHKERFDPSGKGKGKAGRVDLVDE [TPPP]" reportedproperty="protein stability index" assayresult=5.24
residuestring="CMDQERLRRESTSQKEMDKAETKT [FCHO1]" reportedproperty="protein stability index" assayresult=5.21
residuestring="GDWLLTANGSEIHKHVHFSSSFTS [SLC22A15]" reportedproperty="protein stability index" assayresult=2.49
residuestring="YRQVPGSDPARYEFLWGPRAHAEI [MAGEA10]" reportedproperty="protein stability index" assayresult=2.91
residuestring="CESDIWALGCVMYTMLLGRPPFET [PLK2]" reportedproperty="protein stability index" assayresult=3.59
residuestring="SGRFAGREWYYGNVTRHQAECALN [NCK2]" reportedproperty="protein stability index" assayresult=2.47
residuestring="AGLFSQEQYERNKSSSSSSSSSSS [TMEM40]" reportedproperty="protein stability index" assayresult=5.32
residuestring="NIHMNFTHICRSHNSINQSLDESV [SLC2A12]" reportedproperty="protein stability index" assayresult=2.54
residuestring="SWSDNERSSSRINIPERASGPEGN [FAM104B]" reportedproperty="protein stability index" assayresult=4.73
residuestring="DGQYMGVAFRGLKGKKLYPVVSAV [SPSB1]" reportedproperty="protein stability index" assayresult=2.12
residuestring="RGNVVLRAQMIRNEYRKLHPVLHK [TRIM43]" reportedproperty="protein stability index" assayresult=2.77
residuestring="PQGISPVSQHWATWALYNLVSVYP [ZER1]" reportedproperty="protein stability index" assayresult=2.88
residuestring="APEIDPSSDGSNFGWETKIKAWMD [KMT2E]" reportedproperty="protein stability index" assayresult=4.36
residuestring="GEEDFSLSATIGSILRELDTSMDG [SERTAD3]" reportedproperty="protein stability index" assayresult=3.93
residuestring="VPPRMGSRAGGPTTPLSPTRLSRL [LMNB1]" reportedproperty="protein stability index" assayresult=3.85
residuestring="SEDEEEYESGYAFLPDLLIFQMVI [SMG5]" reportedproperty="protein stability index" assayresult=2.59
residuestring="DERIFSLTRRLAHGEELRVSARSR [HAGHL]" reportedproperty="protein stability index" assayresult=4.12
residuestring="HGLAFWFDVAFIGSIMTVWLSTAP [CARM1]" reportedproperty="protein stability index" assayresult=3.1
residuestring="HSGEKPYKCSDCGKTFKQSSNLGQ [ZNF232]" reportedproperty="protein stability index" assayresult=3.57
residuestring="PVMNGGVQTWTQPRLCYLVKEGGS [PDZK1]" reportedproperty="protein stability index" assayresult=3.09
residuestring="NNPFAKGFRGSDDMELHRMSRMQS [TBX5]" reportedproperty="protein stability index" assayresult=4.06
residuestring="QTASRSLVLSEDRKSVRYTRQKKN [TRIM15]" reportedproperty="protein stability index" assayresult=4.8
residuestring="RGIIMTFGSGSNGCLGHGSLTDIS [NEK8]" reportedproperty="protein stability index" assayresult=2.4
residuestring="RSFVEKHRWPSNMYLKQLAEYRKY [RHOBTB3]" reportedproperty="protein stability index" assayresult=2.62
residuestring="KTCNPPDAGPMVVHCSAGVGRTGC [PTPRD]" reportedproperty="protein stability index" assayresult=3.5
residuestring="EFKAAFDMFDADGGGDISVKELGT [TNNC2]" reportedproperty="protein stability index" assayresult=4.63
residuestring="IKPENILITKQGIIKICDFGFAQI [CDKL4]" reportedproperty="protein stability index" assayresult=2.49
